assay info: Clearance in Wistar rat at 3 mg/kg, iv
Assay type: ADME, organism-based
Design: dose 3 mg/kg, route intravenous
measurement parameters: in vivo
result type: clearance (mL/min/kg)

{"structure as smiles": "C[C@@H](CN1c2ccc(F)cc2CC1(C)C)NC(=O)O[C@@H](CC1CCCCC1)C(=O)N1CCOCC1", "clearance (mL/min/kg)": 52}
{"structure as smiles": "C[C@@H](CN1CC(C)(C)c2cc(F)ccc21)NC(=O)[C@H](CC1CCCCC1)NC(=O)N1CCOCC1", "clearance (mL/min/kg)": 52}
{"structure as smiles": "C[C@@H](CN1CC(C)(C)c2cc(F)ccc21)NC(=O)O[C@@H](CC1CCCCC1)C(=O)N1CCOCC1", "clearance (mL/min/kg)": 52}
